Test system: corn (Zea mays)
ASSAY_NAME: Test C preemergence
Assay type: in vivo
RUN_CONDITIONS: preemergence, Rate 500 g/ha, visual evaluation after 12 to 14 days
Field: Plant response rating (0 to 100), Corn. Provide a value for each of the compounds that follow.
Simply state the number, no unit and no words.

Quick one: Plant response rating (0 to 100), Corn of CC1(c2ccn(C3SCN(c4cccc(C(F)(F)F)c4)C3=O)n2)CC1 (stereo not drawn) ? 40

I'd like to know its Plant response rating (0 to 100), Corn. The compound in question is CCCC(C)c1ccn(C2OCN(c3cccc(OC(F)F)c3)C2=O)n1 (stereo not drawn) 90

Would you kindly share the measured Plant response rating (0 to 100), Corn for CCC(CC)c1ccn(C2CCN(c3cccc(OC)c3)C2=O)n1 (stereo not drawn) ? 50

What measured Plant response rating (0 to 100), Corn goes with CC(C)(C)c1ccn(C2CCN(c3cccc(OC(F)F)c3)C2=O)n1 (stereo not drawn) ? 80

Find the recorded Plant response rating (0 to 100), Corn belonging to CCCC(C)c1ccn(C2CCN(c3ccc(Cl)c(OC)c3)C2=O)n1 (stereo not drawn) and report it. 90

Requested field: Plant response rating (0 to 100), Corn. Item: CC(C)(C)c1ccn(C2CCN(c3ccc(F)c(Br)c3)C2=O)n1 (stereo not drawn) 0

Which Plant response rating (0 to 100), Corn is listed for COc1cc(N2CCC(n3ccc(C(C)C)n3)C2=O)ccc1Br (stereo not drawn) ? 30

Would you kindly share the measured Plant response rating (0 to 100), Corn for Cc1ccc(N2CCC(n3ccc(C(C)(C)C)n3)C2=O)cc1OC(F)F (stereo not drawn) ? 0

Give its Plant response rating (0 to 100), Corn value. Item: CCCOc1cc(N2CCC(n3ccc(C(C)(C)C)n3)C2=O)ccc1C (stereo not drawn) 10

Can you share its Plant response rating (0 to 100), Corn? I mean this compound: COc1cc(OC)cc(N2CCC(n3ccc(C(C)(C)C)n3)C2=O)c1 (stereo not drawn) 30

Returns the measured Plant response rating (0 to 100), Corn for the input compound. Input: CCCC(C)c1ccn(C2CCN(c3cccc(C(F)(F)F)c3)C2=O)n1 (stereo not drawn) 20

Recorded Plant response rating (0 to 100), Corn of CCC(C)c1ccn(C2CCN(c3ccc(Br)c(OC)c3)C2=O)n1 (stereo not drawn) , please. 10

* * *

System: giant foxtail (Setaria faberii)
ASSAY_NAME: Test B preemergence
Format: in vivo
RUN_CONDITIONS: preemergence; Rate 250 g/ha; scale 0 to 100, 0 no effect, 100 complete control
Exercise: state measured Plant response rating, Foxtail, Giant for each of the compounds provided.
// return a plain number; no unit text

Entry under review: CC(C)(C)c1ccn(C2OCN(c3cccc(C(F)(F)F)c3)C2=O)n1 (stereo not shown) . Reported Plant response rating, Foxtail, Giant? 90

Requested field: Plant response rating, Foxtail, Giant. Item: CC1(C)CCc2cn(C3CCN(c4cccc(C(F)(F)F)c4)C3=O)nc21 (stereo not shown) 100

What value of Plant response rating, Foxtail, Giant has been reported for the following compound? Cc1ccc(N2CCC(n3ccc(C(C)(C)C)n3)C2=O)cc1OCCCl (stereo not shown) 100

Which Plant response rating, Foxtail, Giant is reported for this compound? CCOc1cccc(N2CCC(n3ccc(C(CC)CC)n3)C2=O)c1 (stereo not shown) 100

* * *

System: duck salad (Heteranthera limosa)
ASSAY_NAME: Test C flooded paddy test
Format: in vivo
RUN_CONDITIONS: Flooded Paddy, Rate 500 g/ha, scale 0 to 100
Hi there, I'd appreciate the recorded Plant response rating, Ducksalad for every entry that follows.

So what's the measured Plant response rating, Ducksalad for this one? O=C1C(n2ccc(C3CC3)n2)CCN1c1cccc(C(F)(F)F)c1 (stereo not shown) [Compound 8] 70

Which Plant response rating, Ducksalad reading was recorded for the molecule Cc1cn(C2CCN(c3cccc(C(F)(F)F)c3)C2=O)nc1C(C)C (stereo not shown) [Compound 17] ? 80

Look up Plant response rating, Ducksalad: Cc1ccn(C2SCN(c3cccc(C(F)(F)F)c3)C2=O)n1 (stereo not shown) [Compound 19] 0

Look at this molecule and give its reported Plant response rating, Ducksalad. CC1(C)CCc2cn(C3CCN(c4cccc(C(F)(F)F)c4)C3=O)nc21 (stereo not shown) [Compound 10] 90

* * *

System: bermudagrass (Cynodon dactylon)
ASSAY_NAME: Test C postemergence
Format: in vivo
RUN_CONDITIONS: Rate 125 g/ha, scale 0 to 100, 0 no effect, 100 complete control
Cut-off 40 on Plant response rating, Bermudagrass: below means satisfied, at or above means not satisfied.

Regarding CCOc1cc(N2CCC(n3ccc(C(C)(C)C)n3)C2=O)ccc1C (stereo not drawn) [Compound 106] , kindly confirm whether its Plant response rating, Bermudagrass is beneath 40. satisfied

Please indicate whether the reported Plant response rating, Bermudagrass of CCC(C)c1ccn(C2SCN(c3cccc(C(F)(F)F)c3)C2=O)n1 (stereo not drawn) [Compound 20] is strictly below 40. not satisfied

Could you please tell me whether Plant response rating, Bermudagrass recorded for COc1cc(N2CCC(n3ccc(C(C)C)n3)C2=O)ccc1C (stereo not drawn) [Compound 85] is less than 40? satisfied

# check: Plant response rating, Bermudagrass < 40 for CCC(CC)c1ccn(C2SCN(c3cccc(C(F)(F)F)c3)C2=O)n1 (stereo not drawn) [Compound 25] not satisfied

API: query returns whether the compound falls strictly under 40 in Plant response rating, Bermudagrass. Query: Cc1ccc(N2CCC(n3ccc(C(C)(C)C)n3)C2=O)cc1OCCCl (stereo not drawn) [Compound 109] satisfied

In the record for CCC(CC)c1ccn(C2OCN(c3cccc(OC(F)F)c3)C2=O)n1 (stereo not drawn) [Compound 131] , is Plant response rating, Bermudagrass less than 40? not satisfied

Bench note: check whether CCC(CC)c1ccn(C2CCN(c3ccc(C)c(OC)c3)C2=O)n1 (stereo not drawn) [Compound 81] shows Plant response rating, Bermudagrass below 40 satisfied

* * *

Would you mind telling me the reported Plant response rating, Surinam grass of each entry?
System: Surinam grass (Brachiaria decumbens)
ASSAY_NAME: Test C preemergence
Type: in vivo
RUN_CONDITIONS: preemergence, Rate 62 g/ha, scale 0 to 100
The reply should be a number, written without any unit.

Any idea what its Plant response rating, Surinam grass is? The compound is CCC(CC)c1ccn(C2CCN(c3ccc(Br)c(OC)c3)C2=O)n1 (centres unmarked) 0

Given CCCC(C)c1ccn(C2SCN(c3cccc(C(F)(F)F)c3)C2=O)n1 (centres unmarked) , state its recorded Plant response rating, Surinam grass. 0

Which value of Plant response rating, Surinam grass has been reported for CCCOc1cc(N2CCC(n3ccc(C(C)(C)C)n3)C2=O)ccc1C (centres unmarked) in the records? 0

Query (compound): CCCC(C)c1ccn(C2OCN(c3cccc(OC(F)(F)F)c3)C2=O)n1 (centres unmarked) ; field requested: Plant response rating, Surinam grass 0

Fill blank: measured Plant response rating, Surinam grass of the compound CC(C)(C)c1ccn(C2CCN(c3cccc(SC(F)(F)F)c3)C2=O)n1 (centres unmarked) is ____. 0

Which Plant response rating, Surinam grass value is on record for CCC(CC)c1ccn(C2CCN(c3cccc(OC)c3)C2=O)n1 (centres unmarked) ? 50

Please report the recorded Plant response rating, Surinam grass for Cc1ccc(N2CCC(n3ccc(C(C)(C)C)n3)C2=O)cc1OCCCl (centres unmarked) . 0

# lookup: Plant response rating, Surinam grass of CCCC(C)c1ccn(C2OCN(c3cccc(OC(F)F)c3)C2=O)n1 (centres unmarked) 90

* * *

Tested on: johnsongrass (Sorghum halepense)
ASSAY_NAME: Test C preemergence
Assay type: in vivo
RUN_CONDITIONS: preemergence; Rate 250 g/ha; scale 0 to 100, 0 no effect, 100 complete control
MEASURED_QUANTITY: Plant response rating, Johnsongrass
// no unit, no text: just the number

Which measured Plant response rating, Johnsongrass value corresponds to COc1cc(N2CCC(n3ccc(C(C)(C)C)n3)C2=O)ccc1Br (centres unmarked) ? 0

Any idea what Plant response rating, Johnsongrass was measured for COc1cc(N2CCC(n3ccc(C(C)C)n3)C2=O)ccc1Cl (centres unmarked) ? 100

# query: Plant response rating, Johnsongrass of entry CCCC(C)c1ccn(C2CCN(c3cccc(C(F)(F)F)c3)C2=O)n1 (centres unmarked) 90

Plant response rating, Johnsongrass lookup needed for CCCOc1cc(N2CCC(n3ccc(C(C)(C)C)n3)C2=O)ccc1C (centres unmarked) , thanks. 50

Would you kindly share the measured Plant response rating, Johnsongrass for Cc1ccc(N2CCC(n3ccc(C(C)(C)C)n3)C2=O)cc1I (centres unmarked) ? 0

* * *

System: lambsquarters (Chenopodium album)
ASSAY_NAME: Test B postemergence
Format: in vivo
RUN_CONDITIONS: Rate 125 g/ha, scale 0 (no effect) to 100 (complete control), 13 to 15 days
What Plant response rating, Lambsquarters was measured for each of the following?
In your answer, state the number alone without any accompanying words.

Looking for the measured Plant response rating, Lambsquarters of CC(C)c1ccn(C2OCN(c3cccc(OC(F)(F)F)c3)C2=O)n1 (centres unmarked) [Compound 65] , can you help? 60

Please give the measured Plant response rating, Lambsquarters for this compound: CC(C)(C)c1nn(C2CCN(c3cccc(C(F)(F)F)c3)C2=O)cc1Cl (centres unmarked) [Compound 14] 0

Name the recorded Plant response rating, Lambsquarters for CCC(C)c1ccn(C2OCN(c3cccc(C(F)(F)F)c3)C2=O)n1 (centres unmarked) [Compound 24] . 90

// returns reported Plant response rating, Lambsquarters for input CC(C)(C)c1ccn(C2CCN(c3cccc(OC(F)F)c3)C2=O)n1 (centres unmarked) [Compound 76] 0

I am curious: what Plant response rating, Lambsquarters value has been reported for CCC(C)c1ccn(C2CCN(c3ccc(C)c(OC)c3)C2=O)n1 (centres unmarked) [Compound 80] ? 10
